Origin of measurements: patent US20200338203A1

Measured pKi values are reported for all entries that follow.
biological target: T1, Human EphA2 (Ecto) (Human, UniProt P29317 24-537); assay: FP competition; competitor Compound 18
T1 construct: extracellular domain
T1 sequence (P29317 24-537): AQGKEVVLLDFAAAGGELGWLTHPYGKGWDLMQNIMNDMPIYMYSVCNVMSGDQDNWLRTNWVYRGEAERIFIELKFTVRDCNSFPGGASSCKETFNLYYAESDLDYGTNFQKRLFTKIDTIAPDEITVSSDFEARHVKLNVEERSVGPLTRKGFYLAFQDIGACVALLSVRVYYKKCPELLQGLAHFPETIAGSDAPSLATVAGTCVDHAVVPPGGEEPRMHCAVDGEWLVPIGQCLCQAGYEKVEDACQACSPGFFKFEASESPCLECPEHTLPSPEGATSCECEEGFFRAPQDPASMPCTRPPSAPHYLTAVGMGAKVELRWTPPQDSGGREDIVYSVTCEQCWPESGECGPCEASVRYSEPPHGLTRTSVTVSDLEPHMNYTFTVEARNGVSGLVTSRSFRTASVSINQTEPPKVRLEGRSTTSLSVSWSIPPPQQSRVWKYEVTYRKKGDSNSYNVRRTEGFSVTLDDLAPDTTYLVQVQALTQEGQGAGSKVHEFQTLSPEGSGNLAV
Numbered stars: 1 amine (or outer) side, 2 acyl side, 3 side chain; on linkers, the order of the positions; unused ones are H or OH. Bridge positions count the residues as written; N and C are the ends. Square brackets hold non-standard residues; d marks the D form. Ends that are not written are not given here. 1Nal = N[C@@H](Cc1cccc2ccccc12)C(=O)O; TBMB = c1c(C[*:1])cc(C[*:3])cc1C[*:2]; Aib = CC(C)(N)C(=O)O; azaGly = NNC(=O)O; Sar = CNCC(=O)O
Note: pKi values are expressed as the negative base-10 logarithm of concentration in M.

As a guide, the following entries are already answered.
BINDER	pKi
[Sar][Sar]ACP[1Nal]G[Aib]FWCPV[dA]RPGC (linker 4-11-18 via TBMB) [Compound 127]	7.40
Ac-[Sar][Sar]A[dD]VTCPWGPNWCPVNRPGC (linker 7-14-21 via TBMB) [Compound 172]	8.40
Ac-[Sar][Sar][dA]HDVPCPWGPFWCPVNRPGC (linker 8-15-22 via TBMB) [Compound 194]	8.92
Ac-[Sar][Sar]H[dD]VPCPW[azaGly]PFWCPVNRPGC (linker 7-14-21 via TBMB) [Compound 267]	9.18

Now examine the next entry.
IN: Name the reported pKi value associated with the binder Ac-[Sar][Sar][dH]DVPCPWGPFWCPVNRPGC (linker 7-14-21 via TBMB) [Compound 224]
OUT: 8.96
